In this section we review reported koff values for a set of binders.
# study system: SARS-CoV-2 Spike S1 protein (SARS-CoV-2, UniProt P0DTC2 16-685)
// note: answer is a bare numeric in s⁻¹

Below: 5 binders and their reported koff.
rabbit monoclonal antibody 9A5 against the SARS-CoV-2 S1 (antibody, V domains shown) VH: QSVEESGGRLVTPGTPLTLTCTVSGFSLSAYQMIWVRQTPGKGLEYIGIMHTGTSAYYANWAKGRFTISKTSSTTVDLKMTSPTTEDTATYFCGRNLNEGFTGAYPFNLWGPGTLVAVSS VL: DVVMTQTPASVEAAVGGTVTIKCQASQSIGSNLAWYQKKPGQPPKLLIYQASNLASGVPSRFKGSGSGTQFTLTISDLECADAATYYCQMNYYISSSYTYTFGGGTEVVVKG
0.000115
rabbit monoclonal antibody 1A3 against the SARS-CoV-2 S1 (antibody, V domains shown) VH: QSLEESGGRLVTPGTPLTLTCTVSGFSFSSYHMGWVRQAPGEGLEWIGTLIGIAGNTYYASWAKGRFSISKTSTTVDLKMTSPTTEDTATYWCARIVTATFEFWGPGTLVTVSS VL: AQVLTQTPSPVSAAVGGTVTISCQASQSVNMNLLSWFQQKPGQPPKLLIYQASNLASGVSARFKGSGSGTQFTLTINEIQCDDAATYYCQGDMGGWMFPFGGGTEVVVTG
9.34e-05
rabbit monoclonal antibody 1H1 against the SARS-CoV-2 S1 (antibody, V domains shown) VH: QSLEESGGDLVKPGASLTLTCTASGFSFSSGYDMCWVRQAPGKGLEWIACIGTGSSGNIYYASWAKGRFTISKTSSTTVTLQMTSLTAADTATYFCARDDADYAGPDYFNLWGPGTLVTVSS VL: DIVMTQTPASVSEPVGGTVTIKCQASESISNWLAWYQQKPGQPPKLLIYAAFTLASGVPSRFKGSGSGTQFTLTINGVECADAATYYCQQTYSSRDVDNVFGGGTEVVVKG
0.000273
rabbit monoclonal antibody 7G5 against the SARS-CoV-2 S1 (antibody, V domains shown) VH: QEQLEESGGDLVKPGASLTLTCTASGFSFSSAYYMCWVRQAPGKGLEWIACIGVDSGGNSYYASWAKGRFTISTTSSTTVTLQMTSLTAADKATYFCTRSFSLWGPGTLVTISS VL: RKWLTQTASSVSAAVGGTVTISCQASQSVYNNDNLAWFQQRPGQPPKLLIYLASNLASGVPPRFSGSGSGTQFTLTISDVQCDDAATYYCLGGYDCSNADCHAFGGGTEVVVKG
0.000261
rabbit monoclonal antibody 1D2 against the SARS-CoV-2 S1 (antibody, V domains shown) VH: QSVEESGGRLVTPGTSLTLTCTVSGIDIETYWMSWVRQAPGKGLEWIAIITSHDHSGYANWAEGRFTISKTSTTVTLTITDLQPSDTGTYFCAKDVGHSTYDLWGPGTLVTVSS VL: AAVLTQTPSPVSAAVGGTVTISCQSSESVLSNNRLSWYQQKPGQPPKLLIYAASTLASGVPSRFKGRGSGTQFTLTISDVQCDDAAMYVCAGAFSGSSDTRAFGGGTEVVVKG
0.000259

Now for the binder whose koff we want.
Looking up rabbit monoclonal antibody 9H1 against the SARS-CoV-2 S1 (antibody, V domains shown) VH: QSVEESGGRLVTPGTPLTLTCTVSGFSLSRYAMSWVRQAPGKGLEWIGIIVDSGHTAYASWAKGRFTISRTSTTVDLKMTSLTTEDTATYFCARETGGGAFYVFEFWGPGTVVTVSS VL: AQVLTQTPSSVSAAVGGTVTINCQASEDIYDNLVWYQQKPGQPPKLLIYDASTLAFGVSSRFRGSGSGTHFTLTMRDVQCDDAATYYCQGEFSCSSGDCTAFGGGTEVVVKG , I found its koff recorded as 0.00025
